Every entry's value here was drawn from the PETadex activity labels (doi:10.1093/ismejo/wraf068).

Proxy for plastic degradation reference
Substrate: PET
Assay: Proxy for plastic degradation [HPLC-UV] (mmol)
Conditions: pH 8; 60 °C
parameter_measured: Proxy for plastic degradation

protein	measurement
unnamed (protein) MTKVNFQNKEEKRIVGILSIPKGKGPYPAVIFCHGLGSSKESPLIKTVSKKVRQVGFATFTFDCLGSRESDPYHSTAGITKRLSDLDAAIDFLAKHPRVDAERMGLYGHSLGGSVALVQASRDKRIKTAVLISPVIDFRRTGLRPINKKHMDEWDKREEILTINRKNKIVFRIPWDFFVDITSYDFVDIARKVACPVMIIHGTQDSLVPIQQSQILCQNLKNSELISLPWQKHFTRTTRKRKEAIVNSIFWFNKYLKKSATPSN	0
unnamed (protein) CNDGSGGLEKTTELEPEDIYPLGDYYDPGKTGPYEVGVKTILLADNSRRTMLGHTKRILLTEVWYPILAPGDKINTVGDMIGQLPEWTPQILESFYGENWEDLLNIQTSAWRDAKTFLPDHPFPVIFFSHGLTALRFQNYTLCEHLASHGFLVIAPDHFDNNVFSNIPGHFTWFNPISTVASEFQRPRDIAFLVKHLQTRQSQTATFFGSYADPGRLGITGHSYGGMTSYAAGEQVAEIDAIAPLNPVILVPTTKFFTKPLLLLVGENDNLASSMFNSCEVAKRNYQTHKGNKAFLFLKNSGHYSATDACMLLPPGFINDDITGCGGAMLNPDIANEIVAAYQVAFFSITLKQDARYQDYLNKNNYPDNLDYEVSWK	0
